The origin of these recorded values is PubChem BioAssay (NCI).

Tested on: MDA-MB-435 melanoma
Test: NCI-60 one-dose screen, 48 h (100 = growth as untreated, 0 = no growth, -100 = all killed)
Conditions: 10 µM unless noted
About 83,000 compounds went through this panel and 20% of them were active in at least one assay; those are over-represented in the sample as a whole.
Entries and their growth values follow.

{"columns": ["MOLECULE", "growth, %"],
 "data": [
  ["COc1cc2c(c(OC)c1OC)C(=O)CC(c1cccc(NC(=O)c3cccc([N+](=O)[O-])c3)c1)O2 (stereo unspecified)", -16.8],
  ["CN1CCN(c2ccc3c(c2)nc(NNC(=O)c2ncccn2)c2cccn23)CC1", -45.7],
  ["C=C1CCC2C3(C)COC(c4cccc(F)c4)OC3CCC2(C)C1C/C=C1/C(=O)OCC1O (stereo unspecified)", -10.3],
  ["COc1cc(C2CC(c3ccc(S(=O)(=O)NCCNc4nc(Nc5ccc(F)cc5)nc(N(C)C)n4)cc3)=Nc3c(N)nc(N)nc3N2)cc(OC)c1OC (stereo unspecified)", 87.1],
  ["COc1ccc2[nH]c(=O)c(CSc3nccc(-c4ccc(OC)c(OC)c4)n3)cc2c1", 11.4],
  ["CCCCCCn1c(O)c(N=Nc2nc(-c3cc4ccccc4oc3=O)cs2)c2ccccc21", 26.3],
  ["C=CC[N+](C)(C)CCn1c2ccccc2c2nc3cc(C)c(C)cc3nc21", 99.6],
  ["CC(C)CSc1nc(NCCc2c[nH]c3ccccc23)c(C#N)c(-c2ccccc2)n1", 71.7],
  ["COC1=C[C@]23CCC(=O)N2CCc2cc4c(cc2[C@@H]3[C@@H]1OC(=O)[C@H](C)O)OCO4", 34.6],
  ["CNC(=O)c1cc(Oc2ccc3nc(NC(=O)Nc4cccc(OC(F)(F)F)c4)sc3c2)ccn1", 53.9],
  ["CC1=C(C(=O)OC(C)C)C(c2cccc(O)c2)NC(=S)N1 (stereo unspecified)", 104],
  ["O=C1NC(=O)c2c1c1c3cc(Br)ccc3[nH]c1c1oc3ccc(F)cc3c21", 33.7],
  ["N#Cc1c(-c2ccc(Cl)cc2)nc2n[nH]c(-c3ccc(Cl)cc3)c2c1-c1cccs1", 60.5],
  ["CCN(CC)c1ccnc(CNCCSC(c2ccccc2)(c2ccccc2)c2ccc(C)cc2)c1", -90.6],
  ["Clc1ccc(-c2ccc(OCCCN3CCN(c4ccncc4)CC3)cc2)cc1", 33.5],
  ["Nc1nnc(-c2c[nH]c3ccc(Br)cc23)c(-c2c[nH]c3ncc(Br)cc23)n1", 30.3],
  ["COc1ccc2oc3c4[nH]c5ccccc5c4c4c(c3c2c1)C(=O)N(C(=O)OC(C)(C)C)C4=O", -26.4],
  ["Cc1ccc2c(N)c(C(=O)Nc3ccc(OC(F)(F)F)cc3)sc2n1", 68.9],
  ["CN(C)c1nc(NCCNS(=O)(=O)c2ccc(C(=O)/C=C/c3ccc(C(F)(F)F)cc3)cc2)nc(Nc2ccc(F)cc2)n1", -81.1],
  ["CN(C)c1ccnc(CNCCSC2(c3ccc(C(F)(F)F)cc3)c3ccccc3C=Cc3ccccc32)c1", -78.3],
  ["C=C1CC[C@@H]2[C@]3(C)COC(c4ccccc4)O[C@@H]3CC[C@@]2(C)[C@@H]1C/C=C1/C(=O)OCC1OC(C)=O (stereo partly specified)", -29.3],
  ["S=c1c2ccccc2nc2n1CCc1c-2[nH]c2ccccc12", 88.6],
  ["COc1ccc(C(=O)/C=C/c2ccc3ccccc3c2)cc1S(N)(=O)=O", 1.97],
  ["Cn1cc(-c2cc(N)n3nc(-c4cn(C)c5ccccc45)cc3n2)c2cc(Br)ccc21", -72.6],
  ["CC(=O)Nc1ccc(-n2cnc3ccc(-c4ccc(O)cc4)cc32)cc1", 44.7],
  ["CC1CN(c2oc(-c3ccc([N+](=O)[O-])cc3)nc2C#N)CC(C)O1 (stereo unspecified)", 100],
  ["O=C(COc1ccc(NC(=O)Nc2ccc(Cl)c(Cl)c2)cc1)N=Nc1c(O)[nH]c2ccc([N+](=O)[O-])cc12", 59.5],
  ["CCC(C)(C)c1ccc(OCCCCCCN2CCN(c3ccncc3)CC2)cc1", -0.134],
  ["COc1ccc(-c2nnc3ccc(N/N=C/c4ccc(O)cc4)nn23)cc1", 45.8],
  ["COc1ccc(-c2nc3ccc(C(=O)NN4C(=O)c5ccc([N+](=O)[O-])cc5C4=O)cc3[nH]2)cc1", 98.3],
  ["COc1ccc(/C=C2\\C(=O)Nc3ccc(Cl)cc32)cc1OCc1ccccn1", 75.1],
  ["CC(=O)OC[C@@]1(C)C2CC[C@]3(C)C(CC=C4C5CC(C)(C)CC[C@]5(C(=O)Nc5ccc(C)cc5)CC[C@]43C)[C@@]2(C)C[C@@H](OC(C)=O)[C@@H]1OC(C)=O (stereo partly specified)", 48.8],
  ["O=C(/C=C/c1cccc(OCc2ccc(F)cc2)c1)c1nc2ccccc2[nH]1", 68.8],
  ["COc1ccc(-c2nnc3ccc(N/N=C/c4ccc(C)cc4)nn23)cc1", 64.7],
  ["O=C(/C=C/c1ccc(-c2ccccc2)cc1)c1nc2ccccc2n1Cc1ccc(Br)cc1", 61.9],
  ["Cc1cccc(NC(=O)[C@]23CCC(C)(C)CC2C2=CCC4[C@@]5(C)C[C@@H](O)[C@H](O)[C@@](C)(CO)C5CC[C@@]4(C)[C@]2(C)CC3)c1 (stereo partly specified)", 25.5]
]}

* * *

Here the recorded growth is given for each entry.
Test system: EKVX NSCLC
Assay: NCI-60 one-dose screen, 48 h (100 = growth as untreated, 0 = no growth, -100 = all killed)
Details: 10 µM unless noted
Procedure: Growth inhibition of the EKVX human Non-Small Cell Lung tumor cell line is measured as a screen for anti-cancer activity. Cells are grown in 96 well plates and exposed to the test compound for 48 hours. Compounds are tested at a single concentration, which is 10^-5 M for most compounds. The reported endpoint is percent growth (GI% or GIPRCNT), where numbers from 0 - 100% represent growth inhibition, and numbers from -100% - 0 represent cell death. […]
About 83,000 compounds went through this panel and 20% of them were active in at least one assay; those are over-represented in the sample as a whole.

{"columns": ["COMPOUND", "UNITS SYMBOL", "growth"],
 "data": [
  ["C=Cn1cc(C(=O)O)c(=O)c2cc(F)c(N3CCN(c4nccc(-c5nccs5)n4)CC3)cc21", "%", -24.2],
  ["CC1(C)CC[C@]2(C(=O)Nc3ccc(F)cc3)CC[C@]3(C)C(=CCC4[C@@]5(C)C[C@@H](O)[C@H](O)[C@@](C)(CO)C5CC[C@]43C)C2C1 (stereo partly drawn)", "%", 32.3],
  ["CC12CC[C@@H]3[C@]4(C)COC(c5cn[nH]c5-c5cccc(Br)c5)O[C@@H]4CC[C@@]3(C)[C@@H]1CC(C1=CCOC1=O)O2 (stereo partly drawn)", "%", 28.2],
  ["Cc1cccc(-c2nc(Nc3ccc(C)c(S(N)(=O)=O)c3)c3ccccc3n2)c1", "%", 22.7],
  ["COc1cc(/C=C/C(=O)c2ccccc2)ccc1Oc1nc(Nc2ccc(F)cc2)nc(N(C)C)n1", "%", 38.6],
  ["C=C1CCC2C3(C)COC(c4cc(F)cc(F)c4)OC3CCC2(C)C1CC(O)C1=CCOC1=O (stereo not drawn)", "%", 83.3],
  ["CCCCOc1ccc(NC(=O)c2sc3nc(C)ccc3c2N)cc1", "%", 6.14],
  ["CC(=O)/C=C/c1cccc2c1C(=O)NC(C)(c1cc3cc(Br)ccc3oc1=O)N2 (stereo not drawn)", "%", 34.3],
  ["CCC(C)(C)c1ccc(OCCCCCCN2CCN(c3ccncc3)CC2)cc1", "%", 6.51],
  ["CC(=O)OC[C@@]1(C)C2CC[C@]3(C)C(CC=C4C5CC(C)(C)CC[C@]5(C(=O)Nc5ccc(F)cc5)CC[C@]43C)[C@@]2(C)C[C@@H](OC(C)=O)[C@@H]1OC(C)=O (stereo partly drawn)", "%", 28.1],
  ["CC1=C(C(=O)OCc2ccccc2)C(c2c(O)cc(O)cc2O)n2c(nc3ccccc32)N1 (stereo not drawn)", "%", 54.4],
  ["CC(=O)NNc1ccc2nnc(-c3ccccc3)n2n1", "%", 95.9],
  ["CCOC(=O)C1=C(N)N(c2ccccc2)C2=C(C(=O)CC(C)(C)C2)C1c1ccc(N2CCOCC2)cc1 (stereo not drawn)", "%", 95.4],
  ["COc1cc2c(c(OC)c1OC)C(=O)CC(c1cccc(NC(=O)c3cc([N+](=O)[O-])ccc3Cl)c1)O2 (stereo not drawn)", "%", 52.3],
  ["COc1ccc(CCC2c3c(cc4c(c3OC)OCO4)CCN2C)cc1 (stereo not drawn)", "%", -17.3],
  ["O=C(/C=C/c1cccc(OCc2ccc(F)cc2)c1)c1nc2ccccc2[nH]1", "%", 38],
  ["N/C(=N\\c1nc2ccccc2s1)NC(=O)Nc1ccccc1Br", "%", 27.1],
  ["CCCCCCCS(=O)(=O)N1CCCC(C(=O)Nc2nc3ccc(NC(=O)c4ccc(F)c(OC)c4F)cc3s2)C1 (stereo not drawn)", "%", 55.7]
]}
